Target: Adenosine A3 receptor (Homo sapiens, UniProt P0DMS8)
Construct: expressed in transfected cells; host or cells: CHO cell membranes
Sequence (P0DMS8 whole entry): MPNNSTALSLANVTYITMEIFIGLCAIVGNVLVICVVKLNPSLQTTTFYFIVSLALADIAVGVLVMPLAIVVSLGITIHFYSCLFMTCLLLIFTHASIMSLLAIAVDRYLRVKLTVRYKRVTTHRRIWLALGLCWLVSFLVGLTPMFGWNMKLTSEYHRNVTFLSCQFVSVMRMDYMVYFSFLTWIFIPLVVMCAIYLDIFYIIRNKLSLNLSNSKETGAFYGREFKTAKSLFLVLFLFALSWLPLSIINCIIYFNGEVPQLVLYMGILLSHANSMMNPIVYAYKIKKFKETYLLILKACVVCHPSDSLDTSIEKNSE
Assay: Adenosine receptor TR-FRET binding assay, A3
Conditions: Table 9, further testing; displacement of 100 nM CA200645, CHO cell membranes; read-out: A3 Ki
pKi: −log10 of the molar value.
Respond with true for pKi values of 7 and above, false for values below.

Confirm if pKi reported for the molecule COc1nc(-c2ccco2)nc(N)c1C(=O)NCc1ncccc1C [Example 18] is 7 or above.
false

Confirm if pKi reported for the molecule Nc1nc(-c2ccco2)ncc1C(=O)NCc1cccc2c1OCO2 [Example 5.52] is 7 or above.
false

Confirm if pKi reported for the molecule Cc1cccnc1CNC(=O)c1c(N)nc(-c2ccco2)nc1OCC(F)(F)F [Example 20.2] is 7 or above.
true

Confirm if pKi reported for the molecule COCC(C)Oc1nc(-c2ccco2)nc(N)c1C(=O)NCc1ncccc1C (stereo not drawn) [Example 20.12] is 7 or above.
true

Confirm if pKi reported for the molecule Nc1nc(-c2ccco2)ncc1C(=O)NCc1cc(F)cc(F)c1 [Example 5.17] is 7 or above.
false

Confirm if pKi reported for the molecule Cc1cccnc1CNC(=O)c1c(N)nc(-c2ccco2)nc1OCC(C)C [Example 20.3] is 7 or above.
true

Confirm if pKi reported for the molecule Cc1cccnc1CNC(=O)c1c(N)nc(-c2ccco2)nc1Cl [Example 13] is 7 or above.
false

Confirm if pKi reported for the molecule Cc1cccc(CNC(=O)c2cnc(-c3ccco3)nc2N)c1 [Example 5.34] is 7 or above.
false

The measurements presented in this section are drawn from patent US20200339548A1.
